biological target: GST-LXRβ ligand-binding domain (Homo sapiens); construct: amino acids 156-461; NP009052; assay: TR-FRETβ activity assay (NCoA3 coactivator peptide recruitment); settings: 1 μM 24(S)-25-epoxycholesterol prestimulation
Sequence (P55055 156-460 limits assumed): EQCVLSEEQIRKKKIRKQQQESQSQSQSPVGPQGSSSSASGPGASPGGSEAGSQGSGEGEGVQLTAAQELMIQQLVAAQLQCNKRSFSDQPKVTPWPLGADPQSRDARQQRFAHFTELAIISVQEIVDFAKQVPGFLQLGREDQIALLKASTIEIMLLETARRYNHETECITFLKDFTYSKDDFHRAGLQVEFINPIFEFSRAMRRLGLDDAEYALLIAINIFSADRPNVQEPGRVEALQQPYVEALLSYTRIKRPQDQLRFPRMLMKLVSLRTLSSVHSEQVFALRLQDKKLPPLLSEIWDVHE
pEC50: −log10 of the molar value.
OUTCOME_MEASURE: pEC50

Request: Lookup: pEC50 / GST-LXRβ ligand-binding domain (Homo sapiens) / Cc1ccc(S(=O)(=O)n2c(-c3cccc(-c4cccc(S(C)(=O)=Nc5nnn[nH]5)c4)c3)c(-c3ccsc3C#N)c3cc(F)ccc32)cc1 (centres unmarked) [37/1]
Response: 6.00 to 7.00

Request: Same question, N#Cc1sccc1-c1c(-c2cccc(-c3ccc(C(=O)NCCS(=O)(=O)O)cc3Cl)c2)n(S(=O)(=O)c2ccc(C(F)F)cc2)c2ccc(F)cc12 [10/3] this time
Response: > 7.00

Request: Proceed to N#Cc1sccc1-c1c(-c2ccccc2)n(S(=O)(=O)c2ccc(CC(=O)O)cc2)c2ccccc12 [27/1]
Response: 5.00 to 6.00

Request: Record: Cc1ccc(S(=O)(=O)n2c(-c3cccc(-c4cc(C(=O)O)n[nH]4)c3)c(-c3ccsc3C#N)c3cc(F)ccc32)cc1 [12/6]
Response: 5.00 to 6.00

Request: Input Cc1ccc(S(=O)(=O)n2c(-c3cccc(N4CC(C(=O)O)C4)c3)c(-c3ccsc3C#N)c3cc(C)ccc32)cc1 [3/46]
Response: 6.00 to 7.00

Request: Now try N#Cc1sccc1-c1c(-c2cccs2)n(S(=O)(=O)c2ccc(Cl)cc2)c2cc(C(=O)O)ccc12 [Compound 19] .
Response: < 5.00

Request: # iterate: O=C(NCCS(=O)(=O)O)C1CC1c1cccc(-c2c(-c3c(Cl)cccc3Cl)c3cc(F)ccc3n2S(=O)(=O)c2ccc(C(F)F)cc2)c1 (centres unmarked) [10/4]
Response: > 7.00

Request: Here is the next molecule: Cc1cc(C)c(S(=O)(=O)n2c(-c3cccs3)c(-c3ccsc3C#N)c3ccccc32)c(C)c1 [1/26]
Response: 5.00 to 6.00

Request: Cool, now Cc1ccc(S(=O)(=O)n2c(-c3cccc(N4CC(C(=O)O)C4)c3)c(-c3ccsc3C=O)c3cc(F)ccc32)cc1 [3/5]
Response: 6.00 to 7.00

Request: Likewise for N#Cc1cccc(C#N)c1-c1c(-c2cccc(-c3cc(F)c(C(=O)O)cc3Cl)c2)n(S(=O)(=O)c2ccc(C(F)F)cc2)c2ccc(F)cc12 [11/65] ?
Response: > 7.00

Request: Would you mind doing Cc1ccc(S(=O)(=O)n2c(-c3cccc(-c4ccc(CN(C)C)cc4)c3)c(-c3ccsc3C#N)c3cc(F)ccc32)cc1 [8/1] as well?
Response: 6.00 to 7.00

Request: For N#Cc1nccnc1-c1c(-c2cccc(-c3cc(F)c(C(=O)O)cc3Cl)c2)n(S(=O)(=O)c2ccc(C(F)F)cc2)c2ccc(F)cc12 [11/11] then?
Response: > 7.00

Request: Next molecule up: COc1ccc(S(=O)(=O)n2c(-c3ccc(CCC(=O)O)cc3)c(-c3ccsc3C#N)c3ccccc32)cc1 [15/6]
Response: 5.00 to 6.00

Request: Cc1ccc(S(=O)(=O)n2c(-c3cccc(C(C)(C)C(=O)O)c3)c(-c3ccsc3C#N)c3ccccc32)cc1 [3/20] , same question.
Response: 5.00 to 6.00
